ASSAY PROTOCOL: In vitro microsomal stability, rat
Type: in vitro ADME
MEASUREMENT SETUP: Rat Microsome, same batch, 10 min
Please use Y for Microsomal stability, % remaining under 90% and N for everything else, ties included.

See these solved cases before continuing.
• CC(C)(C)C[C@H]1N[C@@H](C(=O)NCCC(C)(O)CO)[C@H](c2cccc(Cl)c2)[C@@]12C(=O)Nc1cc(Cl)c(F)cc12 (some centres unmarked) = N
• CC(O)C(O)CCNC(=O)[C@@H]1N[C@H](CC(C)(C)C)[C@]2(C(=O)Nc3cc(Cl)c(F)cc32)[C@H]1c1cccc(Cl)c1 (some centres unmarked) = Y

input: # TODO verify Microsomal stability, % remaining < 90% strictly for this molecule: CC(C)(C)C[C@H]1N[C@@H](C(=O)NCC[C@H](O)CN2CC[C@@H](O)C2)[C@H](c2cccc(Cl)c2)[C@@]12C(=O)Nc1cc(Cl)c(F)cc12
output: Y

input: # check: Microsomal stability, % remaining < 90% for CC(C)(C)C[C@H]1N[C@@H](C(=O)NCC[C@H](O)CNC(C)(C)C)[C@H](c2cccc(Cl)c2)[C@@]12C(=O)Nc1cc(Cl)c(F)cc12
output: Y

====

ASSAY PROTOCOL: In vitro microsomal stability, rat
Type: in vitro ADME
MEASUREMENT SETUP: Table 17, 4 min
PARAMETER: % of compound remaining when incubated in rat liver microsomes (%)
Express your answer in %, writing the number without its unit.

• CC(C)N1CCN(CCCNC(=O)[C@@H]2N[C@H](CC(C)(C)C)[C@]3(C(=O)Nc4cc(Cl)ccc43)[C@H]2c2cccc(Cl)c2F)CC1 [MI-519-45] = 81.1
• CN1CCN(CCCNC(=O)[C@@H]2N[C@H](CC(C)(C)C)[C@]3(C(=O)Nc4cc(Cl)ccc43)[C@H]2c2cccc(Cl)c2F)CC1 [MI-519-46] = 83.8

Data point: CN1CCN(CCNC(=O)[C@@H]2N[C@H](CC(C)(C)C)[C@]3(C(=O)Nc4cc(Cl)c(F)cc43)[C@H]2c2cccc(Cl)c2)CC1 [MI-749] ; % of compound remaining when incubated in rat liver microsomes = 82.9

====

Property: % Tumor Growth Inhib. T/C Control 750 mm^3 D24; scope: individual compounds
System: SJSA-1 xenograft tumors
ASSAY PROTOCOL: In vivo efficacy, SJSA-1 xenograft model (tumor volume)
Set-up: species or system C.B-17 SCID mice
MEASUREMENT SETUP: Exp. No. 2, SJSA-1 xenograft, PO 100 mg/kg, D24
Report the figure in % without appending any unit label.

* CC(C)(C)C[C@H]1N[C@@H](C(=O)NCC(C)(C)O)[C@H](c2cccc(Cl)c2F)[C@@]12C(=O)Nc1cc(Cl)ccc12 | 59.5
* CC(C)(C)C[C@H]1N[C@@H](C(=O)NC2CCC(O)CC2)[C@H](c2cccc(Cl)c2F)[C@@]12C(=O)Nc1cc(Cl)ccc12 (stereo partly drawn) | 3.2

Please find the next compound below.
According to the records, this compound CC(C)(C)C[C@H]1N[C@@H](C(=O)NC2CCN(S(C)(=O)=O)CC2)[C@H](c2cccc(Cl)c2F)[C@@]12C(=O)Nc1cc(Cl)ccc12 displays % Tumor Growth Inhib. T/C Control 750 mm^3 D24 of 66.1
